Test system: NCI-H522 lung
Experiment: NCI-60 one-dose screen, 48 h (100 = growth as untreated, 0 = no growth, -100 = all killed)
Conditions: 10 µM unless noted
This is part of a sample that, as a whole, favours compounds with a hit. Of some 83,000 tested, about 20% had one in any assay.
Would you mind sorting the entries by growth according to these classes? c1: < 40%; c2: ≥ 40% and < 90%; c3: ≥ 90%

Please review the entries below; each comes with its answer.
Compound | Class assignment
Oc1c(-c2cc(C(F)(F)F)[nH]n2)cc(Cl)c(OCc2ccc(Cl)cc2)c1-c1ccc(Cl)c(C(F)(F)F)c1 | c1
O=c1c2sc3ccccc3c2nnn1-c1ccc(F)c(Cl)c1 | c2

Lab note: which band did `CC(=O)O[C@H]1[C@H](CC#CC#CC[C@@H]2C[C@]3(C)[C@H]4CC=C5[C@H]6[C@@H](C)[C@H](C)CC[C@]6(C(=O)NCCN(CCN)CCN)CC[C@@]5(C)[C@]4(C)CC[C@H]3C(C)(C)[C@H]2OC(C)=O)C[C@]2(C)[C@H]3CC=C4[C@H]5[C@@H](C)[C@H](C)CC[C@]5(C(=O)NCCN(CCN)CCN)CC[C@@]4(C)[C@]3(C)CC[C@H]2C1(C)C` land in?
c1

Check `CCN(C)CCCOc1ccc(/C(=C(\C)Cc2cccc(OC)c2)c2ccc(OC(C)=O)cc2)cc1` too.
c3

Check `Nc1ccc(N(O)/C=C2\C=CC=CC2=O)cc1N` too.
c2

* * *

Test system: HCT-15 colon
Assay: NCI-60 one-dose screen, 48 h (100 = growth as untreated, 0 = no growth, -100 = all killed)
Settings: 10 µM unless noted
The panel holds about 83,000 compounds, 20% with a hit somewhere; the sample as a whole holds those more often.
Would you mind sorting the entries by growth according to these classes? low = under 50%, mid = from 50% up to 90%, high = 90% and over

Lab note: which band did `COc1ccc(/C(=C\c2ccc3c(c2)OCO3)C(=O)Nc2nc3ccc(F)cc3s2)cc1OC` land in?
high

Check `CC(=O)c1cccc(Nc2ncnc3ccc(NC(=O)c4ccco4)cc23)c1` too.
mid

Check `COc1ccc(NC(=O)/C=C/c2ccc(Cl)c(Cl)c2)cn1` too.
mid

Check `[Ag].[Ag].[NH-]S(=O)(=O)c1ccc(N=Nc2cc(N=Nc3ccc(S([NH-])(=O)=O)cc3)c3c(NC(=O)C(Cl)Cl)cccc3c2OC(=O)C(Cl)Cl)cc1.[c-]1nccs1.[c-]1nccs1` too.
mid

Check `COc1cc(CN2CCO[C@H](COc3cccc(F)c3)C2)ccc1Cl` too.
low

Check COC(=O)C1(C)COP(=O)(NC23CC4CC(CC(C4)C2)C3)OC1 (centres undefined) too.
high

Check `C=CCn1c(SCC(=O)Nc2ccc(C(=O)/C=C/c3ccccc3)cc2)nnc1-c1ccc(OC)c(OC)c1` too.
mid

Check `CC[C@H](Nc1nc(C)nc(N)c1C#N)c1nc2cccc(NCc3ccc(C(=O)NO)cc3)c2c(=O)n1-c1ccccc1` too.
low

* * *

Test system: SK-OV-3 ovarian
Test: NCI-60 one-dose screen, 48 h (100 = growth as untreated, 0 = no growth, -100 = all killed)
Details: 10 µM unless noted
This is part of a sample that, as a whole, favours compounds with a hit. Of some 83,000 tested, about 20% had one in any assay.
Is growth at least 90%? Then 1. If not, -1.

Compound | Class assignment
CCn1c(CN2CCN(Cc3ccccc3)CC2)nc2cc(NC(=O)c3cccs3)ccc21 | -1

Check if growth >= 90% (inclusive). Item: `CCOC(=O)c1sc2nc(-c3cc4ccccc4o3)cc(-c3ccc(Cl)cc3)c2c1N`
1

Check `CCOc1cccc(/C=N/NC(=O)Cc2ccc(Nc3ccnc(C(F)(F)F)c3)cc2)c1O` too.
-1

Check `Cc1cc(C)c2c(NC(=O)Nc3ccc(Cl)c(Cl)c3)n[nH]c2n1` too.
1

Check `Clc1ccc(Nc2ncnc3c2sc2ncccc23)c(Cl)c1` too.
-1

Check `COC(=O)c1cc2oc(/C=N/NC(=O)c3cc4oc(-c5cccc(C(F)(F)F)c5)cc4[nH]3)cc2n1Cc1ccccc1` too.
1

Check `C=CC[C@]1(O)CC[C@H]2[C@@H]3CCc4cc(O)ccc4[C@H]3CC[C@@]21C` too.
1

Check `COc1ccc(NC(=O)/C=C/c2ccc(Cl)c(Cl)c2)cn1` too.
1

Check `O=C1Nc2ccccc2/C1=C/c1c[nH]c2ccccc12` too.
1

Check `Cc1cc(C)cc(Nc2cc(C)nc3nc(C(F)(F)F)nn23)c1` too.
-1

Check `CC1CCN(Cc2ccc(NC(=O)c3cc4ccc5cccnc5c4[nH]3)cc2)CC1` too.
-1

Check `O=C1C=CC(=O)N1c1cccc(N2C(=O)C=CC2=O)c1` too.
1

* * *

Here, each record is paired with measured growth data.
Test system: SK-OV-3 ovarian
Assay: NCI-60 one-dose screen, 48 h (100 = growth as untreated, 0 = no growth, -100 = all killed)
Details: 10 µM unless noted
This is part of a sample that, as a whole, favours compounds with a hit. Of some 83,000 tested, about 20% had one in any assay. Calls of active or inactive are those of the source. Rule for the calls: active = growth percent below 10; inactive = the rest.

Example results:
Molecule | growth
COS(=O)(=O)CCN(CCOS(C)(=O)=O)S(C)(=O)=O | 104% (inactive)
CCc1ccc(Nc2cc(C)c3ccc(O)cc3n2)cc1 | 90.1% (inactive)
CC1CN(CCCOC(=O)Nc2ccc(Cl)cc2)CCN1C(C)(C)C (stereo unspecified) | 93.8% (inactive)
Cc1nn(-c2ccc(Cl)cc2)c(=O)n1CCN1CCOCC1 | 42.8% (inactive)
Clc1cc(Br)ccc1-c1ccc(CNCC2CCNCC2)o1 | 67.2% (inactive)

Please look at the following molecule next.
Could you tell me which growth is on file for CC(COC(=O)c1ccccc1)N1CC2CCC(C1)O2 (stereo unspecified) ?
96.1% (inactive)

* * *

Here, each record is paired with measured growth data.
Tested on: MDA-MB-231 breast
Test: NCI-60 one-dose screen, 48 h (100 = growth as untreated, 0 = no growth, -100 = all killed)
Conditions: 10 µM unless noted
The panel holds about 83,000 compounds, 20% with a hit somewhere; the sample as a whole holds those more often.
Enter your answer as a number in %; do not include the unit.

Example results:
Compound | growth [%]
COc1ccc2[nH]c(C(=O)OCc3ccc4cccc(O)c4n3)cc2c1 | -70.8
CN1CCN(Cc2ccc(NC(=O)c3ccc(C#N)c(C#Cc4cnc(N)c5ncccc45)c3)cc2C(F)(F)F)CC1 | -2.17
CCOC(C)(c1ccc(Cl)cc1)C1CCNCC1 (stereo not given) | 102
CC1=NN(c2cccc(S(N)(=O)=O)c2)C(=O)C1 | 97.1
C[C@@H](C[C@H](CC1CC1)c1ccccc1)c1ccc2ccccc2c1 | 106
COc1cc2nccc(Oc3ccc(NC(=O)C4(C(=O)Nc5ccc(F)cc5)CC4)cc3)c2cc1Oc1ccc(N)cn1 | 42.7
COc1cccc(CC(C)=C(c2ccc(OCCCN(C)C)cc2)c2ccc(OCCCN(C)C)cc2)c1 | -82.2
CCOCC(O)(c1ccc(Cl)cc1)c1ccc(Cl)cc1 | 100
COc1ccc(-c2nsc3c2NC(=O)CC3c2cccc(F)c2)cc1 (stereo not given) | 44.7

Please look at the following compound next.
Could you tell me which growth is on file for `CC(=O)Nc1ccc(Cl)cc1Cl` ?
100

* * *

Tested on: A498 renal
Experiment: NCI-60 one-dose screen, 48 h (100 = growth as untreated, 0 = no growth, -100 = all killed)
Details: 10 µM unless noted
Compounds without any hit were thinned out: in the full panel of roughly 83,000, 20% have a hit. Active and inactive are the calls of the source. How the source made its calls: active means growth percent below 10; inactive means the rest.
Measurement name: growth

Compound | Measurement name | Reported value
COc1ccc(-c2oc(=O)ccc2-c2cc(OC)c(OC)c(OC)c2)cc1F | growth | 83.4% (inactive)
COC(=O)/C=C/c1cc(OC(C)=O)c2c(c1)[C@@H](C(=O)OC)[C@H](c1ccc(OC(C)=O)c(OC(C)=O)c1)O2 | growth | -14.3% (active)
O=c1[nH]cnc2nc[nH]c12 | growth | 87.9% (inactive)
CC(=O)N(C)c1ccc(Nc2cc(C)[nH]c3ccc4ncnc4c23)cc1 | growth | 78.5% (inactive)
Cc1nc([C@H]2CC[C@H]3[C@@H]4CCC5=CC(=O)CC[C@]5(C)[C@H]4CC[C@]23C)cs1 | growth | 74.4% (inactive)
COc1ccc(C(=O)c2cc(C)c(OC)c(C)c2)cc1OC(=O)CCl | growth | 44.1% (inactive)

Could you tell me which growth is on file for Cc1ccc(S(=O)(=O)NC(CCC(=O)Nc2ccc(Cl)cc2)C(=O)Nc2ccc(Cl)cc2)cc1 (stereo not drawn) ?
-0.58% (active)

Check `Cc1ccc2cc3c(NC(=O)c4cccnc4)nn(C)c3nc2c1` too.
91.7% (inactive)

Check `CC(=O)c1ccc(Nc2nc(Cl)nc(Oc3c(Cl)cccc3Cl)n2)cc1` too.
69.3% (inactive)

Check `c1ccc(C(Nc2ccccn2)(c2ccccc2)c2ccccc2)cc1` too.
72% (inactive)

Check `COc1cccc2nc(Nc3cccc(NC(=O)c4cc(N5CCOCC5)cc(C(F)(F)F)c4)c3)ccc12` too.
99.4% (inactive)

Check COc1ccc(/C=C2\CCCC3=C2N=C2SC(C)=NN2C3c2ccc(OC)c(OC)c2)cc1OC (stereo not drawn) too.
52.2% (inactive)

Check `CC(=O)O[C@H]1[C@H](CC#CC#CC[C@@H]2C[C@]3(C)[C@H]4CC=C5[C@H]6[C@@H](C)[C@H](C)CC[C@]6(C(=O)NCCN(CCN)CCN)CC[C@@]5(C)[C@]4(C)CC[C@H]3C(C)(C)[C@H]2OC(C)=O)C[C@]2(C)[C@H]3CC=C4[C@H]5[C@@H](C)[C@H](C)CC[C@]5(C(=O)NCCN(CCN)CCN)CC[C@@]4(C)[C@]3(C)CC[C@H]2C1(C)C` too.
122% (inactive)

Check COC1=CC(c2ccc[nH]2)=N/C1=C\c1[nH]c(C)c(C(=O)CCCCCCCCC(=O)O[C@H]2CC[C@H]3C4CCc5cc(O)ccc5C4CC[C@]23C)c1C (stereo partly drawn) too.
-0.91% (active)

Check COc1cccc(OCC(O)CN2CCN(c3ccccc3)CC2)c1 (stereo not drawn) too.
90.6% (inactive)

Check CCOC(=O)C1=C(C)NC(SCc2nnc(-c3ccc(Cl)cc3)o2)=NC1c1ccc(Br)cc1 (stereo not drawn) too.
73.2% (inactive)

Check `Cc1ccc(NC(=O)c2[nH]c(SCCN(C)C)nc2-c2ccc(F)cc2)cc1Nc1ccc2ncn(C)c(=O)c2c1` too.
61.2% (inactive)

Check `CN1CCN(Cc2ccc(NC(=O)c3cncc(C#Cc4ncc5cnccn45)c3)cc2C(F)(F)F)CC1` too.
65.2% (inactive)
